# TARGET UNDER TEST: HLA-A*02:12
# EXPERIMENT NOTES: IEDB peptide-MHC binding, purified MHC/direct/fluorescence; filed as Kd, often an IC50 or EC50 that approximates it; bounds were set here for any values at or beyond the usual limits of such assays
# EXPERIMENTAL SETUP: source organism: Mammarenavirus machupoense

{"columns": ["BIOPOLYMER SEQUENCE", "Kd"],
 "data": [
  ["LITEQFLCY", "≥ 20 µM"]
]}

###

# TARGET UNDER TEST: HLA-A*01:01
# EXPERIMENT NOTES: IEDB peptide-MHC binding, purified MHC/direct/fluorescence; filed as Kd, often an IC50 or EC50 that approximates it; bounds were set here for any values at or beyond the usual limits of such assays
# EXPERIMENTAL SETUP: source organism: Bacillus anthracis
MEASUREMENT TYPE: Kd (nM)

{"columns": ["BIOPOLYMER SEQUENCE", "TARGET UNDER TEST", "MEASURED RESULT"],
 "data": [
  ["FTDNNELEF", "HLA-A*01:01", 2]
]}

###

# TARGET UNDER TEST: HLA-A*26:01
# EXPERIMENT NOTES: IEDB peptide-MHC binding, purified MHC/direct/fluorescence; filed as Kd, often an IC50 or EC50 that approximates it; bounds were set here for any values at or beyond the usual limits of such assays
# EXPERIMENTAL SETUP: source organism: Orthomarburgvirus marburgense
pKd: −log10 of the molar value.

{"columns": ["BIOPOLYMER SEQUENCE", "pKd"],
 "data": [
  ["LYKTIVNIW", "≤ 4.70"]
]}

###

# TARGET UNDER TEST: HLA-A*31:01
# EXPERIMENT NOTES: IEDB peptide-MHC binding, purified MHC/competitive/radioactivity; filed as Kd, often an IC50 or EC50 that approximates it; bounds were set here for any values at or beyond the usual limits of such assays
# EXPERIMENTAL SETUP: source organism: Mammarenavirus brazilense
pKd: −log10 of the molar value.
# pKd values compiled below

{"columns": ["BIOPOLYMER SEQUENCE", "TARGET UNDER TEST", "pKd"],
 "data": [
  ["SSQRDTILK", "HLA-A*31:01", 5.59],
  ["CSSLTEEFYH", "HLA-A*31:01", 5.47]
]}

###

# TARGET UNDER TEST: HLA-B*08:01
# EXPERIMENT NOTES: IEDB peptide-MHC binding, purified MHC/direct/fluorescence; filed as Kd, often an IC50 or EC50 that approximates it; bounds were set here for any values at or beyond the usual limits of such assays
# EXPERIMENTAL SETUP: source organism: Escherichia coli O157:H7

{"columns": ["BIOPOLYMER SEQUENCE", "UNIT STRING", "Kd"],
 "data": [
  ["RRNDVARIF", "nM", 1900]
]}

###

# TARGET UNDER TEST: HLA-B*44:03
# EXPERIMENT NOTES: IEDB peptide-MHC binding, purified MHC/competitive/radioactivity; filed as Kd, often an IC50 or EC50 that approximates it; bounds were set here for any values at or beyond the usual limits of such assays
# EXPERIMENTAL SETUP: source organism: Dengue virus 4 Philippines/H241/1956

{"columns": ["BIOPOLYMER SEQUENCE", "TARGET UNDER TEST", "Kd [nM]"],
 "data": [
  ["SLIEVKTCLW", "HLA-B*44:03", 2330],
  ["MEGVFHTMW", "HLA-B*44:03", 2.58],
  ["TEIASLPTYL", "HLA-B*44:03", 222],
  ["NELNYVLWE", "HLA-B*44:03", 159],
  ["SECPNERRAW", "HLA-B*44:03", 56.5]
]}

###

# TARGET UNDER TEST: HLA-B*44:02
# EXPERIMENT NOTES: IEDB peptide-MHC binding, purified MHC/competitive/radioactivity; filed as Kd, often an IC50 or EC50 that approximates it; bounds were set here for any values at or beyond the usual limits of such assays
# EXPERIMENTAL SETUP: source organism: Dengue virus 4 Dominica/814669/1981
pKd: −log10 of the molar value.
MEASUREMENT TYPE: pKd

{"columns": ["BIOPOLYMER SEQUENCE", "MEASURED RESULT"],
 "data": [
  ["AERIGEPDY", 6.69]
]}

###

# TARGET UNDER TEST: HLA-B*07:02
# EXPERIMENT NOTES: IEDB peptide-MHC binding, purified MHC/direct/fluorescence; filed as Kd, often an IC50 or EC50 that approximates it; bounds were set here for any values at or beyond the usual limits of such assays
# EXPERIMENTAL SETUP: source organism: Entamoeba histolytica

{"columns": ["BIOPOLYMER SEQUENCE", "TARGET UNDER TEST", "Kd"],
 "data": [
  ["DFGYATMAK", "HLA-B*07:02", "≥ 20 µM"]
]}

###

# pKd values compiled below
# TARGET UNDER TEST: HLA-A*02:03
# EXPERIMENT NOTES: IEDB peptide-MHC binding, purified MHC/direct/fluorescence; filed as Kd, often an IC50 or EC50 that approximates it; bounds were set here for any values at or beyond the usual limits of such assays
# EXPERIMENTAL SETUP: source organism: Zaire ebolavirus
pKd: −log10 of the molar value.
MEASUREMENT TYPE: pKd

{"columns": ["BIOPOLYMER SEQUENCE", "MEASURED RESULT"],
 "data": [
  ["LTDRELLLL", "≤ 4.70"],
  ["WLQKIPLQW", "≤ 4.70"],
  ["YFTFDLTAL", "≤ 4.70"]
]}

###

# TARGET UNDER TEST: HLA-B*08:02
# EXPERIMENT NOTES: IEDB peptide-MHC binding, purified MHC/direct/fluorescence; filed as Kd, often an IC50 or EC50 that approximates it; bounds were set here for any values at or beyond the usual limits of such assays
# EXPERIMENTAL SETUP: source organism: Giardia lamblia ATCC 50803
pKd: −log10 of the molar value.

{"columns": ["BIOPOLYMER SEQUENCE", "pKd"],
 "data": [
  ["SDRLHHDPL", "≤ 4.70"]
]}

###

# TARGET UNDER TEST: HLA-C*14:02
# EXPERIMENT NOTES: IEDB peptide-MHC binding, purified MHC/direct/fluorescence; filed as Kd, often an IC50 or EC50 that approximates it; bounds were set here for any values at or beyond the usual limits of such assays
# EXPERIMENTAL SETUP: source organism: Yellow fever virus
MEASUREMENT TYPE: Kd (nM)

{"columns": ["BIOPOLYMER SEQUENCE", "MEASURED RESULT"],
 "data": [
  ["RVLDCRTAF", 349]
]}

###

# TARGET UNDER TEST: HLA-B*27:03
# EXPERIMENT NOTES: IEDB peptide-MHC binding, purified MHC/direct/fluorescence; filed as Kd, often an IC50 or EC50 that approximates it; bounds were set here for any values at or beyond the usual limits of such assays
# EXPERIMENTAL SETUP: source organism: Encephalitozoon cuniculi GB-M1
MEASUREMENT TYPE: Kd

{"columns": ["BIOPOLYMER SEQUENCE", "TARGET UNDER TEST", "MEASURED RESULT"],
 "data": [
  ["MPFDPSELV", "HLA-B*27:03", "≥ 20 µM"]
]}

###

# TARGET UNDER TEST: HLA-B*57:01
# EXPERIMENT NOTES: IEDB peptide-MHC binding, purified MHC/competitive/fluorescence; filed as Kd, often an IC50 or EC50 that approximates it; bounds were set here for any values at or beyond the usual limits of such assays
# EXPERIMENTAL SETUP: source organism: Bacillus anthracis str. 'Ames Ancestor'

{"columns": ["BIOPOLYMER SEQUENCE", "TARGET UNDER TEST", "Kd"],
 "data": [
  ["MTQNISNDK", "HLA-B*57:01", "≥ 20 µM"]
]}

###

# TARGET UNDER TEST: HLA-B*18:01
# EXPERIMENT NOTES: IEDB peptide-MHC binding, purified MHC/competitive/fluorescence; filed as Kd, often an IC50 or EC50 that approximates it; bounds were set here for any values at or beyond the usual limits of such assays
# EXPERIMENTAL SETUP: source organism: Entamoeba histolytica HM-1:IMSS

{"columns": ["BIOPOLYMER SEQUENCE", "TARGET UNDER TEST", "Kd"],
 "data": [
  ["YLHIHPFKI", "HLA-B*18:01", "≥ 20 µM"]
]}
